- targetEntity: Torsin-1A-interacting protein 1 (Homo sapiens) (UniProt Q5JTV8)
- Sequence (Q5JTV8 whole entry, looked up): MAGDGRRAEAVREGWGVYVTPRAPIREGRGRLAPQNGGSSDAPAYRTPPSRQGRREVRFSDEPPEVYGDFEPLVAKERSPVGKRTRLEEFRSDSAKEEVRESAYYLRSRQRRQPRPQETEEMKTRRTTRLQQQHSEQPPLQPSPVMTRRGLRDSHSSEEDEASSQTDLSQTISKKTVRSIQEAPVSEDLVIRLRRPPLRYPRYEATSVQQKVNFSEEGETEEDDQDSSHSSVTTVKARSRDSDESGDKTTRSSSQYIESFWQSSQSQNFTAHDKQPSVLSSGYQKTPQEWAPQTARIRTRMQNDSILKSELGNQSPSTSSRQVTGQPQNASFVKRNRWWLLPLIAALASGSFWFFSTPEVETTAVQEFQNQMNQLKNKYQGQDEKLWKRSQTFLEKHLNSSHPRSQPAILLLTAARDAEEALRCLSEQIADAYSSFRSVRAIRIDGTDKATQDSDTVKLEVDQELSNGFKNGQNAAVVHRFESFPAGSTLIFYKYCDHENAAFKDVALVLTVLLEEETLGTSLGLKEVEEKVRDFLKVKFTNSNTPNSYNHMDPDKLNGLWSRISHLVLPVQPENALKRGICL
- runDescription: compound microarray binding of lysate hLAP1 – cell lysate, small-molecule microarray, COS7 lysate, 635/667 nm fluorescence, primary screen (AID 1116)
- conditions: 635 nm fluorescence, higher = more signal
readoutLabel: composite z-score
Respond numerically, and do not add a unit to the figure.

COCCOC(=O)N1C(=O)[C@@]2(c3ccccc31)[C@H](c1ccc(OCCO)cc1)N1[C@H](c3ccccc3)[C@H](c3ccccc3)OC(=O)[C@H]1[C@@H]2C(=O)NC[C@H](O)c1ccccc1    0.839
CCCC=C(CCC)[C@@H](NS(=O)(=O)CC)c1ccccc1    0.806
O=C(C=C(CC(O)c1cccc(Cl)c1)OCCF)OCCF (centres undefined)    0.516
COCCOC(=O)N1C(=O)[C@@]2(c3cc(C#CC4(O)CCCCCC4)ccc31)[C@H](C(=O)NC[C@H](O)c1ccccc1)[C@H]1C(=O)O[C@H](c3ccccc3)[C@H](c3ccccc3)N1[C@@H]2c1ccc(OCCO)cc1    0.394

INPUT: Write down the reported composite z-score (system: Torsin-1A-interacting protein 1 (Homo sapiens) (UniProt Q5JTV8)) of C=C(CCCC)/C(=C/C[C@@H](OC(=O)c1ccncc1)c1ccccc1OCCO)c1cc(C(=O)OC)ccc1OC
OUTPUT: 0.603

INPUT: Quote Torsin-1A-interacting protein 1 (Homo sapiens) (UniProt Q5JTV8) composite z-score for entry O=C1C2C=CC(C(O)c3ccccn3)N(Nc3ccccc3)C2C(=O)N1c1ccccc1 (centres undefined) .
OUTPUT: 0.529

INPUT: Send back Torsin-1A-interacting protein 1 (Homo sapiens) (UniProt Q5JTV8) composite z-score of OCc1ccc(-c2cc[n+](Cc3cccc(OC(F)(F)F)c3)cc2)cc1 only.
OUTPUT: 1.08

INPUT: Quote composite z-score with test system Torsin-1A-interacting protein 1 (Homo sapiens) (UniProt Q5JTV8) for [N-]=[N+]=NCc1ccccc1C[C@]1(C(=O)NCCN2CCOCC2)COC(c2ccc(OCCCO)cc2)=N1
OUTPUT: 0.555

INPUT: Output reported composite z-score of the molecule CC1=C2[C@@H](CCc3ccccc3)OB(O)C[C@@H]2[C@@H]2C(=O)C=CC(=O)[C@@H]2C1 on Torsin-1A-interacting protein 1 (Homo sapiens) (UniProt Q5JTV8).
OUTPUT: 0.464

INPUT: Look up Torsin-1A-interacting protein 1 (Homo sapiens) (UniProt Q5JTV8) data: composite z-score of CC(C)(C)N1CC=CC23O[C@@H]4C=CCCOC(=O)C4[C@H]2C(=O)N(CCCO)[C@@H]3C1=O (some centres undefined) , then report it.
OUTPUT: 0.0642
